# Target Desc: UniProt P23977
# Sequence (P23977 whole entry): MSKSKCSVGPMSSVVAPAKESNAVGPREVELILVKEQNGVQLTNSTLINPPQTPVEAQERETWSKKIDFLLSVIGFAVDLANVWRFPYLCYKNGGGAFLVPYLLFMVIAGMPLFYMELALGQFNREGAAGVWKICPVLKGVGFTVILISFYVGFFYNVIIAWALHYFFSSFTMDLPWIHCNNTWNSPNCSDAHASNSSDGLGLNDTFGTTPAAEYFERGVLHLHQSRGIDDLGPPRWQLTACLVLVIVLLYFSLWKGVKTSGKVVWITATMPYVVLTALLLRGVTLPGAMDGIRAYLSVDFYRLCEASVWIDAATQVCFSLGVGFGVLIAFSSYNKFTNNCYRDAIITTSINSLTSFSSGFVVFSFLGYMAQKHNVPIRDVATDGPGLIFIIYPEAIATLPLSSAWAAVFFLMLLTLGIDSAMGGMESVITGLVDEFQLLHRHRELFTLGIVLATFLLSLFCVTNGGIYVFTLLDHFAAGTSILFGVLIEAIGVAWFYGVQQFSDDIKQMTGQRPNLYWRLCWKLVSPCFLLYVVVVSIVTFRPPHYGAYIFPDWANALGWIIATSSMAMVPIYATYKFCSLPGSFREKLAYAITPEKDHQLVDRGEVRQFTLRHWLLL
# Measurement Protocol: Inhibitory constant towards reuptake of [125I]-13 from dopamine transporter in rat striatal membranes
# Assay type: cell membranes, Membrane
Item-by-item account of Ki
Reported Endpoint: Ki (nM)

- COC(=O)C1C(c2ccc(Cl)cc2)CC2CCC1N2C/C=C/I (stereo not drawn): 3.2
- OC1(c2ccc(Cl)cc2)c2ccccc2C2=NCCN21 (stereo not drawn): 41.6
- COC(=O)C1C(c2ccc(Cl)cc2)CC2CCC1N2C/C=C\I (stereo not drawn): 6.3
